assaySystem: HIV-1 Env of pseudovirus CAAN (HIV-1)
experimentSummary: cell-based or functional assay
This listing pairs binders with measured IC50, pseudovirus neutralization (TZM-bl assay).
Write down the numeric answer in µg/mL and omit the unit.

Would you please look over these solved cases?
>  <binder>
1503_H05 (PG16) (TCN-119) (antibody, V domains shown) VH: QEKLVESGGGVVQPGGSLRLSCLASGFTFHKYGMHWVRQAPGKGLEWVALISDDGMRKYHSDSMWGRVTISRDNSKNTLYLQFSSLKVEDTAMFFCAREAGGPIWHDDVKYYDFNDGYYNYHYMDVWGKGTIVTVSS VL: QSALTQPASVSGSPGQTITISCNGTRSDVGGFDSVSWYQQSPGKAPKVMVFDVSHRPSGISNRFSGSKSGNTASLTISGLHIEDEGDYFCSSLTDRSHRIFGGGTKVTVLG

>  <assayResult>
13.5

$$$$
>  <binder>
1469_M23 (PG16) (TCN-118) (antibody, V domains shown) VH: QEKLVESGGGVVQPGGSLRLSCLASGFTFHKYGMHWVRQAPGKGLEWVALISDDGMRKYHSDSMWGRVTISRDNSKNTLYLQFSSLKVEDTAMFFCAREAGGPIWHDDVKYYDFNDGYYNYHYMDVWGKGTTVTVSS VL: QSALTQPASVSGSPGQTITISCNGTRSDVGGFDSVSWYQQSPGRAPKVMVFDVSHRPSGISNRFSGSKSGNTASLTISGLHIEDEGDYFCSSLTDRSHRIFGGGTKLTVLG

>  <assayResult>
17.7

$$$$

// next item, IC50, pseudovirus neutralization (TZM-bl assay) requested
Endpoint output: IC50, pseudovirus neutralization (TZM-bl assay) of 1456_A12 (PG16) (TCN-117) (antibody, V domains shown) VH: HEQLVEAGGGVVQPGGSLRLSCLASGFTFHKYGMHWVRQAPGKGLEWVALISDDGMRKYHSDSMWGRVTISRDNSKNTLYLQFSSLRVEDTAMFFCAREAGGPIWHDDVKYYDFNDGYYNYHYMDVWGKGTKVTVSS VL: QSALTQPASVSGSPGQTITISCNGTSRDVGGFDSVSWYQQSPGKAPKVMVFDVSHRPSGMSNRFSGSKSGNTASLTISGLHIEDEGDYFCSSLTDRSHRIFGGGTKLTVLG . Value?
10.6
